Below are compounds with their pIC50 as measured on Granzyme B (Homo sapiens).
Sequence (P10144 21-247): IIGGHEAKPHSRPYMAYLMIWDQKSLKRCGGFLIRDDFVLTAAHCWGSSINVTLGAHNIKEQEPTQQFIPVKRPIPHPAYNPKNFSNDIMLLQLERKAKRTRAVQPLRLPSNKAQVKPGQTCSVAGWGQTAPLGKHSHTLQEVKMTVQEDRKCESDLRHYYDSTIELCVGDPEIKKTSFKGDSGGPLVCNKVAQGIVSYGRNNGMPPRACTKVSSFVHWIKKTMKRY
pIC50: −log10 of the molar value.

compound: COC(=O)CC/C(O)=C(/C(=O)CCC(=O)Nc1ccc(Cl)cc1Cl)C(=O)OC
pIC50: ~4.30
//
compound: Cc1ccc(NC(=O)/C(O)=C(/C(=O)c2ccc3ccccc3c2)[C@H]2OC(=O)c3ccccc32)c(C)c1 (stereo in doubt)
pIC50: ~3.71
//
compound: CCOc1ccccc1NC(=O)/C(O)=C(/C(=O)c1ccc2ccccc2c1)[C@@H]1OC(=O)c2ccccc21
pIC50: ~3.59

Provide measured pIC50 on Granzyme B (Homo sapiens) for Cc1ccc(NC(=O)/C(O)=C(/C(=O)c2ccc3ccccc3c2)[C@@H]2OC(=O)c3ccccc32)cc1C please.
~3.57
